tested on: brain; assay: NGS fold enrichment of synthetic library (passage 3) in C57Bl/6 mice, first cross-species screen; format: in vivo; details: synthetic library passage 3, intravenous, RNA NGS, brain of C57Bl/6 mice, relative to wild-type AAV9
Cut-off 0.8 fold on Fold enrichment over AAV9 in the brain of Mice (C57Bl/6): below means Criterion met, at or above means Criterion not met.

Look over these answered cases.
>  <SEQUENCE_TEXT>
GSRTLSNVGQNQQT

>  <LABEL_CLASS>
Criterion met

$$$$
>  <SEQUENCE_TEXT>
GSGQNQQTSPRLQT

>  <LABEL_CLASS>
Criterion not met

$$$$
>  <SEQUENCE_TEXT>
GPFGMPSSGQNQQT

>  <LABEL_CLASS>
Criterion met

$$$$

# input for lookup
Item GSGQNQQGTLLHQT : Fold enrichment over AAV9 in the brain of Mice (C57Bl/6) beneath 0.8 fold, strictly?
Criterion not met

* * *

system: brains, heart, liver, muscle, and DRG of the NHPs; test: Maturation of TTM-001 and TTM-002 capsids, NGS enrichment in NHP tissues; format: in vivo; conditions: NHP liver RNA; NGS; TTM-001 and TTM-002 matured AAV capsid variants; relative to AAV9 control
For each entry below, report its Fold Enrichment relative to AAV9, Liver RNA (NHP) value.
One number for each entry, in fold.

The cases that follow already have their Fold Enrichment relative to AAV9, Liver RNA (NHP) on record.
>  <SEQUENCE_TEXT>
KTINGSGSPHSKLKRQQT

>  <TARGET_OR_SYSTEM>
brains, heart, liver, muscle, and DRG of the NHPs

>  <UNITS_OF_MEASURE>
fold

>  <QUANTITATIVE_RESULT>
76.103

$$$$
>  <SEQUENCE_TEXT>
KTINGSGSPHSKVRMQQT

>  <TARGET_OR_SYSTEM>
brains, heart, liver, muscle, and DRG of the NHPs

>  <UNITS_OF_MEASURE>
fold

>  <QUANTITATIVE_RESULT>
11.572

$$$$
>  <SEQUENCE_TEXT>
KKHLGSGSPHSKAQNQQT

>  <TARGET_OR_SYSTEM>
brains, heart, liver, muscle, and DRG of the NHPs

>  <UNITS_OF_MEASURE>
fold

>  <QUANTITATIVE_RESULT>
18.521

$$$$

Consider now this further sequence.
Query: Fold Enrichment relative to AAV9, Liver RNA (NHP); subject: KTINGSGSPHSVKKNQQT
48.475

* * *

tested on: brains, heart, liver, muscle, and DRG of the NHPs; assay: Maturation of TTM-001 and TTM-002 capsids, NGS enrichment in NHP tissues; type: in vivo; settings: NGS fold-enrichment, muscle of NHPs, relative to AAV9 control
PROPERTY_NAME: Fold Enrichment relative to AAV9, Muscle (NHP) (fold)
Answers are plain numbers, in fold.

Illustrative cases are given below, each with its answer.
>  <SEQUENCE_TEXT>
KTENVSGSPHSKAQNQQT

>  <QUANTITATIVE_RESULT>
0.000

$$$$
>  <SEQUENCE_TEXT>
KTINGSGSPHSKSQNQHI

>  <QUANTITATIVE_RESULT>
0.000

$$$$

# ---- query sequence ----
Consider the sequence shown here: KTANGSGSPHSKAQYQQT What is its recorded Fold Enrichment relative to AAV9, Muscle (NHP)?
0.000

* * *

Provide the recorded Fold enrichment over AAV9 in the brain of NHPs for the entries that follow.
test system: brain, spinal cord, and DRG of the NHPs; assay: NGS fold enrichment of synthetic library (passage 3) in NHPs, first cross-species screen; format: in vivo, cynomolgus macaques (Macaca fascicularis); details: synthetic library passage 3, intravenous, RNA NGS, brain of NHPs, relative to wild-type AAV9
Answers are plain numbers, in fold.

# count of solved cases: 3
>  <SEQUENCE_TEXT>
GVVHITNSGQNQQT

>  <UNITS_OF_MEASURE>
fold

>  <QUANTITATIVE_RESULT>
1.969

$$$$
>  <SEQUENCE_TEXT>
GPTNGRSSGQNQQT

>  <UNITS_OF_MEASURE>
fold

>  <QUANTITATIVE_RESULT>
2.034

$$$$
>  <SEQUENCE_TEXT>
GSGMPVILGQNQQT

>  <UNITS_OF_MEASURE>
fold

>  <QUANTITATIVE_RESULT>
2.005

$$$$

Here is the next item to consider.
Value wanted: Fold enrichment over AAV9 in the brain of NHPs (brain, spinal cord, and DRG of the NHPs) of entry GAGVHMVSGQNQQT
1.987

* * *

I'd appreciate it if you could supply Fold enrichment over AAV9 in the brain of NHPs values for the items below.
system: brain, spinal cord, and DRG of the NHPs; assay: NGS fold enrichment of synthetic library (passage 3) in NHPs, first cross-species screen; assay type: in vivo, cynomolgus macaques (Macaca fascicularis); settings: synthetic library passage 3, intravenous, RNA NGS, brain of NHPs, relative to wild-type AAV9
Answers are plain numbers, in fold.

Sample answers from the record:
>  <SEQUENCE_TEXT>
GSSSPGASGQNQQT

>  <QUANTITATIVE_RESULT>
1.717

$$$$
>  <SEQUENCE_TEXT>
GSGLDYSQRQNQQT

>  <QUANTITATIVE_RESULT>
2.056

$$$$
>  <SEQUENCE_TEXT>
GSGKGHSAGQNQQT

>  <QUANTITATIVE_RESULT>
1.453

$$$$

Return reported Fold enrichment over AAV9 in the brain of NHPs values for all items listed beneath this line.
1. GSGQNQHSVQVRQT
2. GSGLAHLGGQNQQT
3. GSGQTSGLKQNQQT
4. GNGLYAVSGQNQQT
5. GNYLHQASGQNQQT
6. GSGQNQQTVPTRQT

1. 1.116
2. 1.064
3. 1.968
4. 2.611
5. 1.635
6. 1.040

Go through the list and state Fold enrichment over AAV9 in the brain of NHPs for each entry.
1. GSRSQYDIGQNQQT
2. GSGQTHGGQHNQQT

[1.706, 2.125]

* * *

system: brains, heart, liver, muscle, and DRG of the NHPs; assay: Maturation of TTM-001 and TTM-002 capsids, NGS enrichment in NHP tissues; type: in vivo; details: NGS fold-enrichment, heart of NHPs, relative to AAV9 control
PROPERTY_NAME: Fold Enrichment relative to AAV9, Heart (NHP) (fold)
Numbers only, in fold.

>  <SEQUENCE_TEXT>
KTDNGSGSPHSKAHNQQT

>  <QUANTITATIVE_RESULT>
0.000

$$$$

# map each sequence to its Fold Enrichment relative to AAV9, Heart (NHP)
1. KTINGSGSPHSKAQGQQA
2. KTINGGGSPHSKSQNQLT
3. KTDKVSGSPHSKAQNQQT
4. KTINGSGSPHSKAQYIHT
5. KTIIGSGSPHSKAQHQLT

0.185
0.070
0.015
0.014
0.000

* * *

test system: brains, heart, liver, muscle, and DRG of the NHPs; assay: Maturation of TTM-001 and TTM-002 capsids, NGS enrichment in NHP tissues; assay type: in vivo; settings: NGS fold-enrichment, liver RNA of NHPs, relative to AAV9 control
PROPERTY_NAME: Fold Enrichment relative to AAV9, Liver RNA (NHP) (fold)
Give bare numbers, in fold.

>  <SEQUENCE_TEXT>
KTSNASGSPHSKAQNQLT

>  <QUANTITATIVE_RESULT>
0.000

$$$$
>  <SEQUENCE_TEXT>
KTINGGGSPHSKALNQQN

>  <QUANTITATIVE_RESULT>
0.000

$$$$
>  <SEQUENCE_TEXT>
KTERLSGSPHSKAQNQQT

>  <QUANTITATIVE_RESULT>
0.126

$$$$
>  <SEQUENCE_TEXT>
KTINGSGSPHSKAQNTYA

>  <QUANTITATIVE_RESULT>
0.425

$$$$
>  <SEQUENCE_TEXT>
KTFNGSGSPHNKAQNHQT

>  <QUANTITATIVE_RESULT>
0.094

$$$$

Look up Fold Enrichment relative to AAV9, Liver RNA (NHP) for the entries below, preserving their order.
1. KTEDKSGSPHSKAQNQQT
2. KTINGSGSPHSKAQAPST
3. KTDKTSGSPHSKAQNQQT

1: 0.000; 2: 0.751; 3: 1.362

* * *

system: brain; experiment: Maturation of TTM-001 capsid, NGS enrichment in brain of CD-1 Outbred mice; format: in vivo; settings: NGS fold-enrichment of TTM-001 matured AAV capsid variants in the brain of CD-1 Outbred mice; intravenous 1.0×10^12 VG/dose; 14 days in life; RNA; relative to non-matured TTM-001 control
Assign Fold enrichment over TTM-001 to each entry below.
One number for each entry, in fold.

Answered examples (5):
>  <SEQUENCE_TEXT>
KTINGSGSPHSKAQRRQT

>  <Fold enrichment over TTM-001, fold>
2.479

$$$$
>  <SEQUENCE_TEXT>
KTTHCSGSPHSKAQNQQT

>  <Fold enrichment over TTM-001, fold>
2.672

$$$$
>  <SEQUENCE_TEXT>
KTINGSGSPHSMFPNQQT

>  <Fold enrichment over TTM-001, fold>
2.419

$$$$
>  <SEQUENCE_TEXT>
KTINLSRSPHSKAQNQQT

>  <Fold enrichment over TTM-001, fold>
2.246

$$$$
>  <SEQUENCE_TEXT>
KTINGSGSPHSWTQNQQT

>  <Fold enrichment over TTM-001, fold>
2.084

$$$$

Could I get Fold enrichment over TTM-001 for every one of these entries?
1. KTINGKTSPHGKAQNQQT
2. KTINGSRSPHRRAQNQQT (peptide inserted in AAV capsid)
3. KTIRLRGSPHSKAQNQQT
4. KTRKSSGSPHSKAQNQQT
5. KPPTGSGSPHSKAQNQQT
6. KTINGSGSPHSLFLNQQT
7. KTINGSGSPHSKAQCRLT
8. KTINGSGSPHSKLSKQQT

1: 2.717; 2: 2.615; 3: 2.408; 4: 2.065; 5: 2.270; 6: 3.358; 7: 2.304; 8: 2.482

Batch lookup, Fold enrichment over TTM-001 per entry.
1. KYLLGSGSPHSKAQNQQT (peptide inserted in AAV capsid)
2. KTINGHLSPHRKAQNQQT
3. KTINGSGSPHSKAQATRT
4. KTINGSGSPHSKPRGQQT

2.253
2.851
2.019
2.147
